Test system: GH3-TRE-Luc cell line
cond: read-out: AC50 (uM) modified / 1000; Tox21_110001=Tox21_300481; viability, 1 nM T3 present, 24 h
test_readout: CC50 (µM)
All answers are understood in µM, so give the number only.

Reported CC50, molecule "O=C(Nc1ccc(Cl)cc1)Nc1ccc(Cl)c(Cl)c1" : ____
3.32

###

protocol_description: in vitro
cond: rat, gh3-tre-luc cells, AC50 (uM) modified / 1000, Tox21_110001=Tox21_302624; viability, 1 nM T3 present, 24 h
test_readout: CC50 at 24 h

Reported CC50 at 24 h, molecule CC1CCC(=O)O1 (stereo not shown) [4-Pentanolide] : ____
> 90 µM

###

protocol_description: in vitro
cond: rat, gh3-tre-luc cells, AC50 (uM) modified / 1000, Tox21_110001=Tox21_301855; viability, 1 nM T3 present, 24 h
test_readout: CC50 at 24 h

Reported CC50 at 24 h, molecule Cc1cc(OC(=O)N(C)C)nn1C(=O)N(C)C [Dimetilan] : ____
> 90 µM

###

protocol_description: in vitro
cond: rat, gh3-tre-luc cells, AC50 (uM) modified / 1000
What CC50 at 24 h was measured for each of the following?

Reported CC50 at 24 h, compound CCCC[C@H]1CN(CC2CCOCC2)C(=O)OC12CCN(C1(C)CCN(C(=O)c3c(C)ncnc3C)CC1)CC2 [PharmaGSID_48521] : ____
> 80 µM

Reported CC50 at 24 h, compound CC(C)[C@@]1(NC(=O)[C@@H]2C[C@@H]3c4cccc5[nH]cc(c45)C[C@H]3N(C)C2)O[C@@]2(O)[C@@H]3CCCN3C(=O)[C@H](Cc3ccccc3)N2C1=O [Dihydroergocristine] : ____
21 µM

Reported CC50 at 24 h, compound CC(O)(CS(=O)(=O)c1ccc(F)cc1)C(=O)Nc1ccc(C#N)c(C(F)(F)F)c1 (stereo not drawn) [Bicalutamide] : ____
> 50 µM

###

protocol_description: in vitro
cond: rat, gh3-tre-luc cells, AC50 (uM) modified / 1000
Counter-ions that a name gives are not always drawn.
test_readout: CC50 at 24 h (µM)
All answers are understood in µM, so give the number only.

Reported CC50 at 24 h, compound Oc1ccc(C(c2ccc(O)cc2)(C(F)(F)F)C(F)(F)F)cc1 [Bisphenol AF] : ____
32.9

Reported CC50 at 24 h, compound CCc1ccc2c(c1)N(CC(C)CN(C)C)c1ccccc1S2 (stereo not drawn) [Etymemazine hydrochloride] : ____
9.18

Reported CC50 at 24 h, compound CC(C)=CCC1=C(O)C(=O)c2ccccc2C1=O [Lapachol] : ____
10.7

Reported CC50 at 24 h, compound Cc1ccc(O)c(N)c1 [2-Amino-4-methylphenol] : ____
33.5

###

System: GH3-TRE-Luc cell line
cond: read-out: AC50 (uM) modified / 1000; Tox21_110001=Tox21_300805; viability, 1 nM T3 present, 24 h
test_readout: CC50 (µM)
All answers are understood in µM, so give the number only.

Reported CC50, molecule C#CCOS(=O)OC1CCCCC1Oc1ccc(C(C)(C)C)cc1 (stereo not shown) [Propargite] : ____
7.01

###

protocol_description: in vitro
cond: rat, gh3-tre-luc cells, AC50 (uM) modified / 1000, Tox21_110001=Tox21_112855; viability, 1 nM T3 present, 24 h
Where a name gives a salt, the structure may show the parent alone.
test_readout: CC50 at 24 h

Reported CC50 at 24 h, compound C[C@@H]1[C@H]2Cc3ccc(O)cc3[C@]1(C)CCN2C [(-)-Metazocine fumarate (1:1)] : ____
> 200 µM
